These entries and their values trace back to ChEMBL document CHEMBL1157688.

# target_of_assay: Integrin alpha-V/beta-5 (Homo sapiens, UniProt P06756+P18084)
# Sequence (P06756 31-889 limits assumed): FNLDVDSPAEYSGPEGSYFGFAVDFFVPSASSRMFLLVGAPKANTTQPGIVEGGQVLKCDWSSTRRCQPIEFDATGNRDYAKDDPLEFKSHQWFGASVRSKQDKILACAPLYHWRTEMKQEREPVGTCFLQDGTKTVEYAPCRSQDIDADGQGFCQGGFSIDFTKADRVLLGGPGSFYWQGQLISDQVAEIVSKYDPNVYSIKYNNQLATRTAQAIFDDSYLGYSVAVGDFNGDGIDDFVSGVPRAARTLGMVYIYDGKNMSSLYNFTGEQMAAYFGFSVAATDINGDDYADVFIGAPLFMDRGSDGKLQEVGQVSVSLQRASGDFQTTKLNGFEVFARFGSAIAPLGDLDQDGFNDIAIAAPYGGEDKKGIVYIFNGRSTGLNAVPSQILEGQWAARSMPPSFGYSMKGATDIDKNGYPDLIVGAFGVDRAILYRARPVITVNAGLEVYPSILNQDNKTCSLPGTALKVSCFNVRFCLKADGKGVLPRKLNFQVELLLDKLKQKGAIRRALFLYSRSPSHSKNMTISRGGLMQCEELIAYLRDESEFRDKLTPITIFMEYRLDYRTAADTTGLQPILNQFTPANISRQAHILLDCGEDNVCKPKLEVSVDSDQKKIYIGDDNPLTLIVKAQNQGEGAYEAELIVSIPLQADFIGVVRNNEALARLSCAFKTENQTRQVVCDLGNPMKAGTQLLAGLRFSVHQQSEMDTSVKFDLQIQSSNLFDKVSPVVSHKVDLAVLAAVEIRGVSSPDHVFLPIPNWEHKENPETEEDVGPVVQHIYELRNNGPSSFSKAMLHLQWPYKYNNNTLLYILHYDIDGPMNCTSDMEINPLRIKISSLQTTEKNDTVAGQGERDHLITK
# Sequence (P06756 891-1048 limits assumed): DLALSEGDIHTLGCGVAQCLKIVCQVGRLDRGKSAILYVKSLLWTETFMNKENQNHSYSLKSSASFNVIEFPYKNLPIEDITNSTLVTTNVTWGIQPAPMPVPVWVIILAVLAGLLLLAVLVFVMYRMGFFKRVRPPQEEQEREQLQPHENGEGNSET
# Sequence (P18084 24-799 limits assumed): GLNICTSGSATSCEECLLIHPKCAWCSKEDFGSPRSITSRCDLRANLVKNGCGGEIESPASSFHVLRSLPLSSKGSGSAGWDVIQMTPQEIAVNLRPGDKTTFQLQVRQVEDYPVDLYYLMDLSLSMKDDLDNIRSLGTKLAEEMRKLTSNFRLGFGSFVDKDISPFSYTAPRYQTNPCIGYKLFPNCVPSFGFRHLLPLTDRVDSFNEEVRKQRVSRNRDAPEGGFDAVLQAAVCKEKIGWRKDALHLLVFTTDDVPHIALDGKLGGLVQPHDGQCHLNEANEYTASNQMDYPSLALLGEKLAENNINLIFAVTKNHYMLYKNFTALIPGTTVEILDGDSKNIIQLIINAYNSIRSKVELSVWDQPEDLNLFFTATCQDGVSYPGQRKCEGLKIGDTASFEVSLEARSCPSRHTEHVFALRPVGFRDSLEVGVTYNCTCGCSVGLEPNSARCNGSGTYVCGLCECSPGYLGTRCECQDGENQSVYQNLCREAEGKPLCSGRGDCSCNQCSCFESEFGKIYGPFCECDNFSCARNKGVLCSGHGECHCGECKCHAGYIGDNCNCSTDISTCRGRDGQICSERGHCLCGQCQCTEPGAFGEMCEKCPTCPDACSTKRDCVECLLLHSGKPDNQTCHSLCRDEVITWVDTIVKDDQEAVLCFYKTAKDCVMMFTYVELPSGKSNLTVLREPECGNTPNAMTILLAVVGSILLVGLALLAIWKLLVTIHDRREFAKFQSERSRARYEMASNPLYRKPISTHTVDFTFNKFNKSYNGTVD
# procedure_summary: Inhibition of integrin alphaVbeta5 receptor-mediated adhesion of human A2780 cells to vitronectin after 1 hr by toluidine blue staining
# Assay type: cell-based
Consider the following compounds; for each one, report its IC50.
Response body: numeric value in µM, unit text excluded.

Param item: `N=C(N)NCCC[C@@H]1NC(=O)[C@H](c2ccc(CNC(=O)COCCOCCOCC(=O)O)cc2)NC(=O)[C@@H](Cc2ccccc2)NC(=O)[C@H](CC(=O)O)NC(=O)CNC1=O` ; param system: Integrin alpha-V/beta-5 (Homo sapiens, UniProt P06756+P18084); output IC50: 12.3

Param item: `CC[C@@]1(O)C(=O)OCc2c1cc1n(c2=O)Cc2c-1nc1ccccc1c2/C=N/NC(=O)COCCOCCOCC(=O)NCc1ccc(C[C@@H]2NC(=O)[C@@H](Cc3ccccc3)NC(=O)[C@H](CC(=O)O)NC(=O)CNC(=O)[C@H](CCCNC(=N)N)NC2=O)cc1` ; param system: Integrin alpha-V/beta-5 (Homo sapiens, UniProt P06756+P18084); output IC50: 6.7

Param item: `N=C(N)NCCC[C@@H]1NC(=O)[C@H](c2ccc(CNC(=O)CCC(=O)O)cc2)NC(=O)[C@@H](Cc2ccccc2)NC(=O)[C@H](CC(=O)O)NC(=O)CNC1=O` ; param system: Integrin alpha-V/beta-5 (Homo sapiens, UniProt P06756+P18084); output IC50: 9.5

###

# target_of_assay: Integrin alpha-V/beta-5 (Homo sapiens, UniProt P06756+P18084)
# procedure_summary: Displacement of [125I]echistatin from integrin alphaVbeta5 receptor after 3 hrs by gamma counting
# Type: protein-complex assay
pIC50: −log10 of the molar value.
We use 8 as the dividing line for pIC50: on or above the line is 1, below is -1.

Prompt: Evaluate `CC[C@@]1(O)C(=O)OCc2c1cc1n(c2=O)Cc2c-1nc1ccccc1c2CC/C=N/NC(=O)COCCOCCOCC(=O)NCc1ccc(C[C@@H]2NC(=O)[C@@H](Cc3ccccc3)NC(=O)[C@H](CC(=O)O)NC(=O)CNC(=O)[C@H](CCCNC(=N)N)NC2=O)cc1` : pIC50 at minimum 8?
Completion: -1

Prompt: Evaluate `N=C(N)NCCC[C@@H]1NC(=O)[C@H](c2ccc(CNC(=O)COCCOCCOCC(=O)O)cc2)NC(=O)[C@@H](Cc2ccccc2)NC(=O)[C@H](CC(=O)O)NC(=O)CNC1=O` : pIC50 at minimum 8?
Completion: 1

Prompt: Evaluate `N=C(N)NCCC[C@@H]1NC(=O)[C@H](c2ccc(CNC(=O)COCCOCCOCC(=O)NN)cc2)NC(=O)[C@@H](Cc2ccccc2)NC(=O)[C@H](CC(=O)O)NC(=O)CNC1=O` : pIC50 at minimum 8?
Completion: 1

Prompt: Evaluate `N=C(N)NCCC[C@@H]1NC(=O)[C@H](c2ccc(CNC(=O)CCC(=O)O)cc2)NC(=O)[C@@H](Cc2ccccc2)NC(=O)[C@H](CC(=O)O)NC(=O)CNC1=O` : pIC50 at minimum 8?
Completion: 1

Prompt: Evaluate `CC[C@@]1(O)C(=O)OCc2c1cc1n(c2=O)Cc2c-1nc1ccccc1c2/C=N/NC(=O)COCCOCCOCC(=O)NCc1ccc(C[C@@H]2NC(=O)[C@@H](Cc3ccccc3)NC(=O)[C@H](CC(=O)O)NC(=O)CNC(=O)[C@H](CCCNC(=N)N)NC2=O)cc1` : pIC50 at minimum 8?
Completion: -1
